system.name: recombinant human baculovirus-expressed GST-tagged FASN (Homo sapiens, UniProt P49327)
Construct: GST
Sequence (P49327 whole entry): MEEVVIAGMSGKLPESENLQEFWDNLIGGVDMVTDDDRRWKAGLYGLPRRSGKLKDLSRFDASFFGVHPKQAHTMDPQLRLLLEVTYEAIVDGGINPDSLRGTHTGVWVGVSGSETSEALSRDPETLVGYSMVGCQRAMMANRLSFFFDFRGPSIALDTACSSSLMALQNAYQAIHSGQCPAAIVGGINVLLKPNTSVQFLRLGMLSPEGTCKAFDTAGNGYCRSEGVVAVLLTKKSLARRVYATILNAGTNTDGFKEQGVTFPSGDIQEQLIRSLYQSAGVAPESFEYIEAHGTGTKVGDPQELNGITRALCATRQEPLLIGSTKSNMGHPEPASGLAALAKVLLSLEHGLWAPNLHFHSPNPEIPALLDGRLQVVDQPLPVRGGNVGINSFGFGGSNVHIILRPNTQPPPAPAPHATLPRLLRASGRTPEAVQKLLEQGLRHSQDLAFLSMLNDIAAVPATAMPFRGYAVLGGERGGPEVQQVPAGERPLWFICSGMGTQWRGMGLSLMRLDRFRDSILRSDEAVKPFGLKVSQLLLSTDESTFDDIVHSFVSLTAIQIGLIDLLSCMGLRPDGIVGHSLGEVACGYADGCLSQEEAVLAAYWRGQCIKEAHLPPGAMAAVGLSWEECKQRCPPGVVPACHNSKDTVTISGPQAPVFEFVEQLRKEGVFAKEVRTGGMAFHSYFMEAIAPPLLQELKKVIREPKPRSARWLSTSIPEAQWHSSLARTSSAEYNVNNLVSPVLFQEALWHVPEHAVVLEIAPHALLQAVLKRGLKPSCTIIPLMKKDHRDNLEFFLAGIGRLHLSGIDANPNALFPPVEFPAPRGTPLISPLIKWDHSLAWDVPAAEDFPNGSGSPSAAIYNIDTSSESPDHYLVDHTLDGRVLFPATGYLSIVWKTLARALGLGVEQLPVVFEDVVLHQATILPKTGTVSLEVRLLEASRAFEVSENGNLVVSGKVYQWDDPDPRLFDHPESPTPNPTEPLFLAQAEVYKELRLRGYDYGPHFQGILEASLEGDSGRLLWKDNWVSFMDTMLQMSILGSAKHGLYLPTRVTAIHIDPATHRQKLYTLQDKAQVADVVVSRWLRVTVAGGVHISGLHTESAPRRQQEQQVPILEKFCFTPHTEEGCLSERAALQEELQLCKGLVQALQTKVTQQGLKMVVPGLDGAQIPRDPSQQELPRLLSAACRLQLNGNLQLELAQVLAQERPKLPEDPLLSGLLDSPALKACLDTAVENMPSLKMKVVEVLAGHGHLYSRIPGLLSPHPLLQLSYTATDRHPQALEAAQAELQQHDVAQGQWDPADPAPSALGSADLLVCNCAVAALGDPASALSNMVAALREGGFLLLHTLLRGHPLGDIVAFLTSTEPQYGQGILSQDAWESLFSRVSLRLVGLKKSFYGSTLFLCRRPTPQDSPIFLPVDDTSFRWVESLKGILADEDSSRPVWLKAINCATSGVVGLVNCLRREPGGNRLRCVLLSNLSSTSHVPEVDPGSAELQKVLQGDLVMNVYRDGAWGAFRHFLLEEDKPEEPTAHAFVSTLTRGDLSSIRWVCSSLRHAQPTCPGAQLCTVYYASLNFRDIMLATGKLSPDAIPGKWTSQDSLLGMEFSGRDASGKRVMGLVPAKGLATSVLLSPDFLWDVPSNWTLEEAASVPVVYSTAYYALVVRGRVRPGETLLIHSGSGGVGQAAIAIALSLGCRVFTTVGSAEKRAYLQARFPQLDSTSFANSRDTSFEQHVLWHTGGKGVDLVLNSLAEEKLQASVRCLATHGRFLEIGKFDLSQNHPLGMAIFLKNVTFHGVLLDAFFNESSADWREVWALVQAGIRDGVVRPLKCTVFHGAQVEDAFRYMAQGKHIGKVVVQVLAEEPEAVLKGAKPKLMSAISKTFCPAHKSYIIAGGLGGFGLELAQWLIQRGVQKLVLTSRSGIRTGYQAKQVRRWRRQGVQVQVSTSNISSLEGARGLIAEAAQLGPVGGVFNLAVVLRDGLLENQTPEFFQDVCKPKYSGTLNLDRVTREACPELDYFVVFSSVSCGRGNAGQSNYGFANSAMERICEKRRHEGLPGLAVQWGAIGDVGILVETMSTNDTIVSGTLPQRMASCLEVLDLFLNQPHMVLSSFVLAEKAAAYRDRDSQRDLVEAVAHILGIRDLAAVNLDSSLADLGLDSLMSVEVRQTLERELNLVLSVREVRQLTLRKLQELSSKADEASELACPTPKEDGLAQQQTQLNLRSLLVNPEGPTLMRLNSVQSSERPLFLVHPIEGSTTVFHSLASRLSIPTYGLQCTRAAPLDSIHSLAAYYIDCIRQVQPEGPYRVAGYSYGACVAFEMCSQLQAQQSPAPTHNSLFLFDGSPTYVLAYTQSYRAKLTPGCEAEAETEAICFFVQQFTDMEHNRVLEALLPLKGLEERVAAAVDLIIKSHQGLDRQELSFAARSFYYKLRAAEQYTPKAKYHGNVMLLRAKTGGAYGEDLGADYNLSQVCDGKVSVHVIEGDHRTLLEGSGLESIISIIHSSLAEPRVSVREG
protocol.notes: FASN enzyme activity assay, fluorescence-based detection of CoA with CPM
Assay type: biochemical
study.conditions: 5 nM FASN, 150 μM NADPH, 10 μM acetyl-CoA, 25 μM malonyl-CoA, 90 minutes incubation; read-out: IC50 data for Compounds of Formulae I-V/V(a): Activity
pIC50: −log10 of the molar value. Counter-ions that a name gives are not always drawn.
property: pIC50

compound	pIC50
O=C(c1ccon1)N1CCC(Oc2ccc(-c3cnc4ccccc4c3)cc2)CC1 [Example 124, HCl]	5.00 to 6.00
CCC(=O)N1CCC(Oc2ccc(-c3ccc(OCc4ccccc4)cc3F)cc2)CC1	5.00 to 6.00
Cc1cnc(C)c2ccc(-c3ccc(OC4CCN(C(=O)C5CC5)CC4)cc3)cc12 [Example 470, HCl]	6.00 to 7.00

Lab note: next compound to report on.
Lookup result for `Cc1c(-c2ccc(OC3CCN(C(=O)[C@@H]4CCCO4)CC3)cc2)ccc2cccnc12` ; measured pIC50: 7.00 to 9.00

* * *

system.name: recombinant human baculovirus-expressed GST-tagged FASN (Homo sapiens, UniProt P49327)
Construct: GST
protocol.notes: FASN enzyme activity assay, fluorescence-based detection of CoA with CPM
Assay type: biochemical
study.conditions: 5 nM FASN, 150 μM NADPH, 10 μM acetyl-CoA, 25 μM malonyl-CoA, 90 minutes incubation; read-out: IC50 data for Compounds of Formulae I-V/V(a): Activity
pIC50: −log10 of the molar value. Structures can show the parent of a compound that is named as a salt.
Entries and their pIC50 values follow.

compound	pIC50
CC(C)C(=O)N1CCC(Oc2ccc(-c3cnc4ccccc4c3)nc2)CC1	5.00 to 6.00
CCC(=O)N1CC[C@H](Oc2ccc(-c3ccc4cccnc4c3C)cc2)[C@H](F)C1 (relative stereo) [Example 367, HCl]	5.00 to 6.00
CCC(=O)N1CCC(Oc2ccc(-c3cnc4ccccc4c3OC)cc2)CC1	6.00 to 7.00

Recorded pIC50 for `CON(C)C(=O)N1CCC(Oc2ccc(-c3cnc4ccccc4c3C)cc2)CC1` on recombinant human baculovirus-expressed GST-tagged FASN (Homo sapiens, UniProt P49327) was 7.00 to 9.00

* * *

system.name: recombinant human baculovirus-expressed GST-tagged FASN (Homo sapiens, UniProt P49327)
Construct: GST
protocol.notes: FASN enzyme activity assay, fluorescence-based detection of CoA with CPM
Assay type: biochemical
study.conditions: 5 nM FASN, 150 μM NADPH, 10 μM acetyl-CoA, 25 μM malonyl-CoA, 90 minutes incubation; read-out: IC50 data for Compounds of Formulae I-V/V(a): Activity
Counter-ions that a name gives are not always drawn.
property: IC50

molecule	IC50
O=C([C@H]1CCCO1)N1CCC(Oc2ccc(-c3ccn4cnnc4c3)cc2)CC1	100 to 999 nM
O=C([C@H]1CCCO1)N1CCC(Oc2ccc(-c3ccc4nccn4c3)cc2)CC1	1 to 99 nM
COc1c(-c2ccc(OC3CCN(C(=O)C4(O)CC4)CC3)cc2)ccc2cccnc12	1 to 99 nM
O=C([C@H]1CCCO1)N1CCC(Oc2ccc(-c3ccc4scnc4c3)cc2)CC1 [Example 267, TFA salt]	1 to 99 nM
O=C(C1OCCO1)N1CCC(Oc2ccc(-c3cnc4ccccc4c3)cc2)CC1 [Example 152, HCl]	1 to 99 nM
CC(=O)C(=O)N1CCC(Oc2ccc(-c3cnc4ccccc4c3C)cc2)CC1	1 to 99 nM
Cc1nccc2cc(-c3ccc(OC4CCN(C(=O)C5CC5)CC4)cc3)ccc12	1 to 99 nM
O=C([C@@H]1CCCO1)N1CCC(Oc2ccc(-c3cnc4ccccc4c3)cc2)CC1 [Example 104, HCl]	1 to 99 nM
N#Cc1cnc2cc(-c3ccc(OC4CCN(C(=O)C5CC5)CC4)cc3)ccc2c1	100 to 999 nM
Cc1nccc2c(C)c(-c3ccc(OC4CCN(C(=O)[C@H]5CCCO5)CC4)cc3)ccc12 [Example 474, HCl]	1 to 99 nM

Record `O=C([C@H]1CCCO1)N1CCC(Oc2ccc(-c3cnc4ccccc4n3)cc2)CC1` / recombinant human baculovirus-expressed GST-tagged FASN (Homo sapiens, UniProt P49327), IC50 recorded as 1 to 99 nM

Item CCC(=O)N1CCC(Sc2ccc(-c3ccc4cccnc4c3)cc2)CC1 [Example 516, HCl] ; assay system recombinant human baculovirus-expressed GST-tagged FASN (Homo sapiens, UniProt P49327); IC50 reported as 1 to 99 nM

The reported IC50 value, recombinant human baculovirus-expressed GST-tagged FASN (Homo sapiens, UniProt P49327), for `O=C(CO)N1CCC(Oc2ccc(-c3cnc4ccccc4c3)cc2)CC1` reads 1000 to 10000 nM

For CC(C)C(=O)N1CCC(Oc2ccc(-c3cnc4ccccc4c3)cc2)CC1 [Example 113, HCl] on recombinant human baculovirus-expressed GST-tagged FASN (Homo sapiens, UniProt P49327), measured IC50 was 100 to 999 nM

Response field IC50 (recombinant human baculovirus-expressed GST-tagged FASN (Homo sapiens, UniProt P49327)) for item `CCC(=O)N1CCC(Oc2ccc(-c3ccc(N4CCOCC4)nc3)cc2)CC1` : 1000 to 10000 nM

Form field, IC50 with recombinant human baculovirus-expressed GST-tagged FASN (Homo sapiens, UniProt P49327), item `CN1CCN(c2c(-c3ccc(OC4CCN(C(=O)[C@H]5CCCO5)CC4)cc3)ccc3cccnc23)CC1` : 1000 to 10000 nM

Form field IC50 for item Cc1c(-c2ccc(O[C@@H]3CCN4C(=O)CC[C@H]4C3)cc2)ccc2cccnc12 (racemic) on recombinant human baculovirus-expressed GST-tagged FASN (Homo sapiens, UniProt P49327): 1000 to 10000 nM

* * *

system.name: recombinant human baculovirus-expressed GST-tagged FASN (Homo sapiens, UniProt P49327)
Construct: GST
protocol.notes: FASN enzyme activity assay, fluorescence-based detection of CoA with CPM
Type: biochemical
study.conditions: 5 nM FASN, 150 μM NADPH, 10 μM acetyl-CoA, 25 μM malonyl-CoA, 90 minutes incubation; read-out: IC50 data for Compounds of Formulae I-V/V(a): Activity
Where a name gives a salt, the structure may show the parent alone.
property: IC50

molecule	system.name	measurement
CC1(C(=O)N2CCC(Oc3ccc(-c4cnc5ccccc5c4)cc3)CC2)CCCO1 (centres unmarked) [Example 115, HCl]	recombinant human baculovirus-expressed GST-tagged FASN (Homo sapiens, UniProt P49327)	100 to 999 nM
Cc1c(-c2ccc(OC3CCN(C(=O)[C@H]4CCCO4)CC3)cc2)ccc2nccn12	recombinant human baculovirus-expressed GST-tagged FASN (Homo sapiens, UniProt P49327)	1 to 99 nM
CC(C)C(=O)N1CCC(S(=O)(=O)c2ccc(-c3ccc4ccncc4c3)cc2)CC1	recombinant human baculovirus-expressed GST-tagged FASN (Homo sapiens, UniProt P49327)	1000 to 10000 nM

For `CCC(=O)N1CCC(C(=O)N(C)c2ccc(-c3ccc4cccnc4c3)cc2)CC1` the molecule record lists IC50 as 100 to 999 nM

`CCC(=O)N1CCC(Oc2ccc(-c3ccc4nccn4c3Cl)cc2)CC1` has a reported IC50 of 100 to 999 nM

Entry under test: Cc1c(-c2ccc(OC3CCN(C(=O)C(C)(F)F)CC3)cc2)ccc2cccnc12 [Example 358, HCl] . Its IC50 was 100 to 999 nM

`CC(C)Oc1cc2cc(-c3ccc(OC4CCN(C(=O)[C@H]5CCCO5)CC4)cc3)ccc2cn1` yielded IC50 of 1 to 99 nM

Memo: `Cc1c(-c2ccc(OC3CCN(C(=O)C4(N)CC4)CC3)cc2)ccc2cccnc12` , reported IC50: 1 to 99 nM

* * *

system.name: recombinant human baculovirus-expressed GST-tagged FASN (Homo sapiens)
Construct: GST
protocol.notes: FASN enzyme activity assay, fluorescence-based detection of CoA with CPM
Format: biochemical
study.conditions: 5 nM FASN, 150 μM NADPH, 10 μM acetyl-CoA, 25 μM malonyl-CoA, 90 minutes incubation; read-out: IC50 data for Additional Compounds of Formulae I-V(a): Activity
pIC50: −log10 of the molar value. Counter-ions that a name gives are not always drawn.
property: pIC50

compound	pIC50
Cc1c(-c2ccc(OC3CCN(C(=O)N4CCN(C(C)C)CC4)CC3)cc2)ccc2cccnc12 [Example 532, HCl]	5.00 to 6.00
Cc1c(-c2ccc(OC3CCN(C(=O)NCC4CC4)CC3)cc2)ccc2cccnc12 [Example 540, HCl]	7.00 to 9.00
Cc1c(-c2ccc(OC3CCN(C(=O)OCC(C)C)CC3)cc2)ccc2cccnc12 [Example 550, HCl]	5.00 to 6.00

# evaluate next
The compound identified as `Cc1c(-c2ccc(OC3CCN(C(=O)Nc4cccnc4)CC3)cc2)ccc2nccn12` registered its pIC50 at 7.00 to 9.00
